Just for reference, PubChem BioAssay (NCATS) is where these values come from.

# MEASUREMENT TARGET: Calcium and integrin-binding protein 1 (Homo sapiens) (UniProt Q99828)
# Sequence (Q99828 whole entry, looked up): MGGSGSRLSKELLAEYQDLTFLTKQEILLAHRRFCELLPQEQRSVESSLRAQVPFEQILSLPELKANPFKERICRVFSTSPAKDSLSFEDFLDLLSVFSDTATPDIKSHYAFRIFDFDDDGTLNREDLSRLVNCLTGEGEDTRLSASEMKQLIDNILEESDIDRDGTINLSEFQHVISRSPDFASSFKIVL
# MEASUREMENT DESCRIPTION: Primary qHTS for Identification of Calcium Integrin Binding Protein 1 (CIB1) Competitor (AID 1508620);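 note: GST tagged CIB1 binding a fluorescein labelled alphaIIb integrin peptide tracer; top concentration of the series differs between compounds; % is set by controls: 0 for no effect and ±100 for the full control effect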
# EXPERIMENTAL CONTEXT: CIB1-GST / FITC-alphaIIb peptide fluorescence polarization; series mostly up to 57.7 µM
Records with an inconclusive call do not appear. Calls of active or inactive are those of the source. Calls come from the whole dose curve; as a rule, active = well fitted inhibition curve with a large enough effect; inconclusive = small, poorly fitted or top-dose-only effect; inactive = flat fitted curve, though single readings scatter. Starred links: 1 amine or outer side, 2 acyl side, 3 side chain; linkers in the order of their positions; H or OH if unused. Positions of bridges follow the written chain, without caps; N, C: chain ends. Non-standard residues stand in square brackets, D forms with d. Residues, ends and D or L forms follow the SMILES beside them. Chains are numbered I, II in the order given. Actinocin(9to1) = Cc1c2oc3c(C)ccc(C(=O)[*:1])c3nc-2c(C(=O)[*:2])c(N)c1=O; NMeV = CN[CH](C(=O)O)C(C)C; Sar = CNCC(=O)O
PROPERTY NAME: activity change, negative = inhibition

INSERT INTO assay_data (compound, property_name, reading) VALUES
  ('COc1cc2c(Nc3ccc(Cl)c(Cl)c3F)ncnc2cc1OCC1C[C@@H]2CN(C)C[C@H]2C1', 'activity change, negative = inhibition', 'inactive'),
  ('CC(C)(C)[C@H](NC(=O)c1ccc(N)c(Cl)c1)C(=O)N1CCC[C@@H]1C(=O)N[C@H](C#N)CC(=O)O', 'activity change, negative = inhibition', '-8.66% [at 6.45 µM] (inactive)'),
  ('CN(C)c1ccc(C(=O)NCCCCCCC(=O)NO)cc1', 'activity change, negative = inhibition', 'inactive'),
  ('CCOc1cc2c(c(F)c1OCC)C(=N)N(CC(=O)c1cc(N3CCOCC3)c(OC)c(C(C)(C)C)c1)C2', 'activity change, negative = inhibition', 'inactive'),
  ('Cc1c2oc3c(C)ccc(C(=O)NC4C(=O)NC(C(C)C)C(=O)N5CCCC5C(=O)N(C)CC(=O)N(C)C(C(C)C)C(=O)OC4C)c3nc-2c(C(=O)NC2C(=O)NC(C(C)C)C(=O)N3CCCC3C(=O)N(C)CC(=O)N(C)C(C(C)C)C(=O)OC2C)c(N)c1=O (stereo unspecified) (I: TVP[Sar][NMeV] / II: TVP[Sar][NMeV]; ester I:1-I:C, II:1-II:C; linker I:N-II:N via Actinocin(9to1); configuration not given here)', 'activity change, negative = inhibition', 'inactive'),
  ('Cn1cnc(=N)c2[nH]cnc21', 'activity change, negative = inhibition', 'inactive');

###

# MEASUREMENT DESCRIPTION: Quantitative High-Throughput drug screen in 47 multiple myeloma cell lines against the NCATS MIPE library collection: XG1_PLB cell viability assay (AID 1919866); note: nearly all actives have a fitted effect of over 35% in size
# EXPERIMENTAL CONTEXT: CellTiter-Glo ATP, 48 h; series mostly up to 45.8 µM
Inconclusive results are not listed. Active and inactive are the calls of the source. Calls come from the whole dose curve; as a rule, active = well fitted cell-killing curve with a large enough effect; inconclusive = small, poorly fitted or top-dose-only effect, or effect the other way; inactive = no such curve, though single readings can be large or run the other way.
Labels: active, inactive

INSERT INTO results (compound, cat) VALUES
  ('Nc1ccc(C(=O)Nc2cccc(-c3nc(N4CCOCC4)c4oc5ncccc5c4n3)c2)cn1', 'active'),
  ('COc1cc(OC)c(NC(=O)Nc2cc(C)on2)cc1Cl', 'inactive'),
  ('O=C(O)C(=O)Nc1cccc(C2=NN=N[N]2)c1', 'inactive'),
  ('CN[C@@H]1C[C@H]2O[C@@](C)([C@H]1OC)n1c3ccccc3c3c4c(c5c6ccccc6n2c5c31)C(=O)N[C@H]4O', 'active'),
  ('CCOC(=O)[C@H](CCc1ccccc1)N[C@@H](C)C(=O)N1[C@@H](C(=O)O)C[C@H]2CCC[C@@H]21', 'active'),
  ('CS(=O)(=O)N1CCc2c(-c3cnc(N)nc3)nc(N3CCOCC3)nc21', 'active'),
  ('O=C1NCCc2[nH]c(-c3ccncc3)cc21', 'active'),
  ('Cc1cncc2cccc(S(=O)(=O)N3CCCN(C(=O)CN)C[C@@H]3C)c12', 'active'),
  ('CC(C)n1cnc2c(NCCc3ccc(O)cc3)nc(-c3csc4ccccc34)nc21', 'active'),
  ('CC(=O)SCC(Cc1ccccc1)C(=O)NCC(=O)OCc1ccccc1 (stereo not given)', 'active'),
  ('CCCCCCCCCCCC(CC1OC(=O)C1CCCCCC)OC(=O)C(CC(C)C)NC=O (stereo not given)', 'inactive'),
  ('CC(Oc1ccc(O)cc1)(P(=O)(O)O)P(=O)(O)O', 'inactive'),
  ('O=C(NC1CC1)c1cccc(-c2ccc3c(NC(=O)C4CC4)n[nH]c3c2)c1', 'active'),
  ('O=C(C=CC#Cc1cccc(NS(=O)(=O)c2ccccc2)c1)NO', 'active'),
  ('Cc1ccc(-n2[nH]c(C)c(N=Nc3cccc(-c4cccc(C(=O)O)c4)c3O)c2=O)cc1C', 'active'),
  ('COc1cccc2c1C(=O)c1c(O)c3c(c(O)c1C2=O)C[C@@](O)(C(C)=O)C[C@H]3O[C@H]1C[C@H](N)[C@H](O)[C@H](C)O1', 'active'),
  ('CCCNC(=O)[C@H]1O[C@H]1C(=O)N[C@H](C(=O)N1CCC[C@@H]1C(=O)OC)C(C)CC (stereo not given in full)', 'active'),
  ('CCCc1nc(C(C)(C)O)c(C(=O)O)n1Cc1ccc(-c2ccccc2-c2nn[nH]n2)cc1', 'inactive'),
  ('FC(F)c1nc2ccccc2n1-c1nc(N2CCOCC2)nc(N2CCOCC2)n1', 'active'),
  ('CN(C)c1ccc(C(=O)NCCCCCCC(=O)NO)cc1', 'active');
